meta.source: ChEMBL document CHEMBL1961873

- assayed.target: cAMP-dependent protein kinase catalytic subunit PRKX (Homo sapiens) (UniProt P51817);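 further: each value is the mean percent inhibition of the kinase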
- Sequence (P51817 whole entry): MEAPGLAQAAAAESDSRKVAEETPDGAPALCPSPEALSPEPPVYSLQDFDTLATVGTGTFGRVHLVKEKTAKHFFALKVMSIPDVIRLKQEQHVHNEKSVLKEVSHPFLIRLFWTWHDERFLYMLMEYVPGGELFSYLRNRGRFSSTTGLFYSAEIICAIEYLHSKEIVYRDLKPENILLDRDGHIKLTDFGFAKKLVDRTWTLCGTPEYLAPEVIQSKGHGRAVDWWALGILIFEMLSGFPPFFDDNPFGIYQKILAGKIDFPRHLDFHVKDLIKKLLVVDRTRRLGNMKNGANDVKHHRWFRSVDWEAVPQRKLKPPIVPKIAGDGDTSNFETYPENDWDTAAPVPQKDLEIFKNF
- condition.details: at 1 µM
Hi there, I'd appreciate the recorded inhibition for every entry that follows.

Some entries whose results are on file:
>>> print(df.to_string())
                            chemical_smiles  result
0  NC(=O)c1cccc(Nc2nccc(Nc3cccc4[nH]ncc34)n2)c1   9.23%
1  O=C1NC(=O)C(c2cccc(Cl)c2)=C1Nc1ccc(O)c(Cl)c1  -1.53%
2       CCn1c(-c2nonc2N)nc2c(N3CCCC3)nccc21   0.74%

Provide inhibition for all items below, preserving their order.
1. Fc1cccc(COc2ccc(Nc3ncnc4sc(-c5cccs5)cc34)cc2Cl)c1
2. COC(=O)Nc1nc2cc(Oc3cccc(NC(=O)Nc4cc(C(F)(F)F)ccc4F)c3)ccc2[nH]1
3. NC(=O)c1ccc(-c2nc(-c3ccccn3)c(-c3ccc4c(c3)OCO4)[nH]2)cc1
4. COc1ccc(COc2ccc(Cc3cnc(N)nc3N)cc2OC)cc1

0.87%
2.2%
2.01%
1.07%

---

- assayed.target: Proto-oncogene tyrosine-protein kinase ROS (Homo sapiens) (UniProt P08922)
- Sequence (P08922 whole entry): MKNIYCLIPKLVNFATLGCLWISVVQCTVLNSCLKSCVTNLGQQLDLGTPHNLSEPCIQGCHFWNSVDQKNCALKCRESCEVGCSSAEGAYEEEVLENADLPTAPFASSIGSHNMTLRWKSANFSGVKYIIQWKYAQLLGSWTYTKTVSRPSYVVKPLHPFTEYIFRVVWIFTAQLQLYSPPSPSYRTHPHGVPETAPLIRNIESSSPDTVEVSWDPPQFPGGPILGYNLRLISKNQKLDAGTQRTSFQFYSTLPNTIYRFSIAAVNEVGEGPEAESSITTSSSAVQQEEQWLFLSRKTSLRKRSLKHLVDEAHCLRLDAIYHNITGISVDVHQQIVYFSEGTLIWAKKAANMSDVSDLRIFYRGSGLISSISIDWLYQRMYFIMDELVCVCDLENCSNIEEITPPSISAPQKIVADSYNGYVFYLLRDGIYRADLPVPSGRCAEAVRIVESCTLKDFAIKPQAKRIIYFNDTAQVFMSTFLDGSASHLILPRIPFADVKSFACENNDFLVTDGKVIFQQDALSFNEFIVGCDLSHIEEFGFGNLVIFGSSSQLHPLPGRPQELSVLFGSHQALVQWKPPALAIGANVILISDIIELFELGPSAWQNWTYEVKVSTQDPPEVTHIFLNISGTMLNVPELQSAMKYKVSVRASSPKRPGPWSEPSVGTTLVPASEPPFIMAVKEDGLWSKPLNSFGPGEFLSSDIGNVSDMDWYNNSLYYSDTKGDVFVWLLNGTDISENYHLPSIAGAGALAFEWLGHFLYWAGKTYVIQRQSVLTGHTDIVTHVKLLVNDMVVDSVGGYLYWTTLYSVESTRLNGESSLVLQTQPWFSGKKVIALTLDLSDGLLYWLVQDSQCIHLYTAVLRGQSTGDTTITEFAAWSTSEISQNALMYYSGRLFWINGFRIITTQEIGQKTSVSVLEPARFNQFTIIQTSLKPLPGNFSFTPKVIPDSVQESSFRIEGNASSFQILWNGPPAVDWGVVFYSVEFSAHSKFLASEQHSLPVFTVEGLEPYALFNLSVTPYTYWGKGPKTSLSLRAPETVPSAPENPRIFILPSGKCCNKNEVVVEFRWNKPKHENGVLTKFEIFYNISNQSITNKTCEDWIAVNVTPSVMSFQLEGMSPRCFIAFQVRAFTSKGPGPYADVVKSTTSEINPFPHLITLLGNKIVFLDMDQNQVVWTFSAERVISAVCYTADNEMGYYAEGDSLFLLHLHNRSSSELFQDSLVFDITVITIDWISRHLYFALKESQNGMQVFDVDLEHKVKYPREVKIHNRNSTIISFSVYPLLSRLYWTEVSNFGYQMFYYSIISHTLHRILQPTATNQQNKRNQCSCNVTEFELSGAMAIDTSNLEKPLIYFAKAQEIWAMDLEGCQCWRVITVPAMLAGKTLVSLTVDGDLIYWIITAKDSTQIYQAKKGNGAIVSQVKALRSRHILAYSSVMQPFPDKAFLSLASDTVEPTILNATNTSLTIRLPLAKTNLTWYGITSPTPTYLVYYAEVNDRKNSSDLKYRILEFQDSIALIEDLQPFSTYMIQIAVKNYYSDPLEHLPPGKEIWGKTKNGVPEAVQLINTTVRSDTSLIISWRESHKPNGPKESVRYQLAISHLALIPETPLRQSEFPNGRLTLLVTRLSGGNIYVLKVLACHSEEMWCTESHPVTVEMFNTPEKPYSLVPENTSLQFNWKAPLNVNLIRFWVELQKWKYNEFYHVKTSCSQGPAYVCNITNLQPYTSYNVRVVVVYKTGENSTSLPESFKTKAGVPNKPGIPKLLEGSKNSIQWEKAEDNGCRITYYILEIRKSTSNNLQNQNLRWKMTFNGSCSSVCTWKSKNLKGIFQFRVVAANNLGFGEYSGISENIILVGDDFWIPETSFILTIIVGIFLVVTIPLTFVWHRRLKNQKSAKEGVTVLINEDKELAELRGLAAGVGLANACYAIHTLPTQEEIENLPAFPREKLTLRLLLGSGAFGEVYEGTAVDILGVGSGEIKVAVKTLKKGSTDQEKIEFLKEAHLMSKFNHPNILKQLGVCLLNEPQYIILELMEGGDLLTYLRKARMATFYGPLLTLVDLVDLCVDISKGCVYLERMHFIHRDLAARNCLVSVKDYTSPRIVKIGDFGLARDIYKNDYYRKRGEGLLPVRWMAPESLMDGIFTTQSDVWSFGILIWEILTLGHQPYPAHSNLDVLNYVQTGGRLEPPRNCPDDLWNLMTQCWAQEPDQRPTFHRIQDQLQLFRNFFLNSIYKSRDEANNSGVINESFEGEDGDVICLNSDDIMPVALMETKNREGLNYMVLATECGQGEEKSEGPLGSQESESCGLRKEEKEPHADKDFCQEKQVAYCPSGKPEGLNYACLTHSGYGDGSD
- condition.details: at 0.1 µM
- Description: GSK_PKIS: ROS mean inhibition at 0.1 uM [Nanosyn]
result.type: inhibition (%)
One number for each entry, in %.

                               compound  result_type  numeric_value
0  Nc1nc(-c2ccccn2)c(-c2ccc3ncccc3n2)s1   inhibition           2.94

Provide inhibition for all items below, preserving their order.
1. CC1=C(C(=O)Nc2ccc3[nH]ncc3c2)C(c2ccc(Cl)c(Cl)c2)CC(=O)N1 (stereo not given)
2. Fc1cccc(COc2ccc(Nc3ncnc4cc(-c5ccc[nH]5)sc34)cc2Cl)c1
3. CCn1c(-c2nonc2N)nc2c(C#CC(C)(C)O)nc(OC[C@@H](N)c3ccccc3)cc21
4. O=C(Nc1n[nH]c2nc(-c3ccco3)c(Br)cc12)C1CC1
5. Nc1ncnc2occ(-c3ccc(NC(=O)Nc4cc(C(F)(F)F)cc(C(F)(F)F)c4)cc3)c12

[2.14, 9.9, 2.07, 3.63, 1.98]

---

Hi there, I'd appreciate the recorded inhibition for every entry that follows.
- assayed.target: Muscle, skeletal receptor tyrosine-protein kinase (Homo sapiens);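 further: values are mean inhibition of MuSK from the GSK PKIS kinase screening panel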
- condition.details: at 0.1 µM
Numbers only, in %.

In [3]: df
Out[3]:
                                   compound                            assayed_target  result_type  numeric_value
0  COC(=O)Nc1nc2cc(Oc3cccc(NC(=O)Nc4cc(C(F)(F)F)ccc4F)c3)ccc2[nH]1  Muscle, skeletal receptor tyrosine-protein kinase (Homo sapiens)   inhibition           4.58
1  COc1cc2ncn(-c3cc(OCc4ccccc4Cl)c(C(N)=O)s3)c2cc1OC  Muscle, skeletal receptor tyrosine-protein kinase (Homo sapiens)   inhibition           4.75
2  O=C1NC(=O)C(N2CCc3ccccc32)=C1c1ccc(Cl)cc1  Muscle, skeletal receptor tyrosine-protein kinase (Homo sapiens)   inhibition           2.09
3  CC(=O)Nc1cccc(C#Cc2cncnc2Nc2ccc(OCc3cccc(F)c3)c(Cl)c2)n1  Muscle, skeletal receptor tyrosine-protein kinase (Homo sapiens)   inhibition           2.44
4  CS(=O)(=O)CCNCc1nc(-c2ccc3ncnc(Nc4ccc(F)c(Cl)c4)c3c2)cs1  Muscle, skeletal receptor tyrosine-protein kinase (Homo sapiens)   inhibition           1.59

Provide inhibition for all items below, preserving their order.
1. Cc1nn(C)c2cc(N(C)c3ccnc(Nc4cccc(S(N)(=O)=O)c4)n3)ccc12
2. CNC(=O)c1cncc(/C=C/c2c(Cl)cccc2Cl)c1
3. Nc1nc(-c2ccc3c(c2)C(=Cc2cc(Br)c(O)c(Br)c2)C(=O)N3)cs1
4. CS(=O)(=O)Nc1ccc(N/C=C2\C(=O)Nc3ccccc32)cc1
5. COc1ccc(COc2ccc(Cc3cnc(N)nc3N)cc2OC)cc1
6. O=C1NC(=O)C(c2ccc(Cl)cc2)=C1Nc1ccc(Cl)c(C(=O)O)c1

1: 2.31; 2: 3.75; 3: 0.81; 4: 2.12; 5: 4.72; 6: -1.83

Provide inhibition for all items below, preserving their order.
1. COc1cc2ncn(-c3cc(OCc4ccccc4C(F)(F)F)c(C(N)=O)s3)c2cc1OC
2. [O-][S+]1CCN(Cc2ccc(-c3ccc4ncnc(Nc5ccc(OCc6ccccc6)c(F)c5)c4c3)o2)CC1
3. O=C1Nc2ccc(C(=O)c3ccco3)cc2C1=Cc1cc(Cl)c(O)c(Cl)c1
4. N#Cc1c(NC(=O)c2cccc3ccccc23)sc2c1CCCC2
5. CCn1c(-c2nonc2N)nc2c(C#CC(C)(C)O)nc(OC[C@@H](N)c3ccccc3)cc21
6. COc1ccc(-c2nn3ncccc3c2-c2ccnc(Nc3ccc(Cl)c(C(F)(F)F)c3)n2)cc1
7. CCCN1CCC(Oc2cc(Nc3nc(Nc4cccc(F)c4C(N)=O)c4cc[nH]c4n3)c(OC)cc2Cl)CC1
8. CCn1c(-c2nonc2N)nc2cnc(Oc3cccc(NC(=O)c4ccc(OCCN5CCOCC5)cc4)c3)cc21

11
1.44
4.03
3.62
-0.69
2.01
3.31
2.09

Provide inhibition for all items below, preserving their order.
1. CCc1cccc(NC(=O)Nc2ccc(Oc3ccc4nc(NC(=O)OC)[nH]c4c3)cc2)c1
2. Cc1ccc(C(=O)NC2CCCCC2)cc1-c1ccc(C(=O)NCC2CC2)cc1
3. NCc1ccc(-c2nc(-c3ccc(Cl)c(O)c3)c(-c3ccncc3)[nH]2)cc1
4. COc1cc(C=NNc2ncnc3c2cnn3-c2ccccc2)ccc1O
5. O=C1NC(=O)C(c2ccccc2Cl)=C1Nc1cccc(O)c1

16.2
6.01
0.08
7.87
3.23

---

- assayed.target: NUAK family SNF1-like kinase 1 (Homo sapiens) (UniProt O60285);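 further: reported values are mean inhibition of ARK5 (NUAK1), from the GSK PKIS screen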
- Sequence (O60285 whole entry): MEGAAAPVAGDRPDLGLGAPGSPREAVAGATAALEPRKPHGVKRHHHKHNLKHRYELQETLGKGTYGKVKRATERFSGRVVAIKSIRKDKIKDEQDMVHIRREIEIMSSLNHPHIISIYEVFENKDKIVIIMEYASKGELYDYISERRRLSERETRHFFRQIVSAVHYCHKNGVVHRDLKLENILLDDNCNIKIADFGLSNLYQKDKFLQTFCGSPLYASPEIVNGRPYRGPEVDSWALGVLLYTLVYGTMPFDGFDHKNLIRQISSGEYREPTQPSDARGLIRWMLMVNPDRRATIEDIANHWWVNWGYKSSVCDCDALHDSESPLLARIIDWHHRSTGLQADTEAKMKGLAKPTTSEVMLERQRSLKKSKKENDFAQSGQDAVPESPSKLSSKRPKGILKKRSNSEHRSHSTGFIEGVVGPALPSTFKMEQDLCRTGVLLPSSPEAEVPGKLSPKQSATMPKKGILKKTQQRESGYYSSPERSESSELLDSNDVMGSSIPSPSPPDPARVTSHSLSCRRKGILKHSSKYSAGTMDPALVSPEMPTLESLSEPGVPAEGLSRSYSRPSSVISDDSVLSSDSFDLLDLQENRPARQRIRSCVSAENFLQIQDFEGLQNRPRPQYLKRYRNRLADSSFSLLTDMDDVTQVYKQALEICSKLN
- condition.details: at 0.1 µM
Hi there, I'd appreciate the recorded inhibition for every entry that follows.
Give bare numbers, in %.

>>> print(df.to_string())
                                   molecule  numeric_value
0  CCn1c(-c2nonc2N)nc2c(C#CC(C)(C)O)nc(CN3CCCC3)cc21          -8.68
1  NC(=O)c1cccc(Nc2nccc(Nc3cccc4[nH]ncc34)n2)c1           40.5
2  CCn1c(-c2nonc2N)nc2c(C#CC(C)(C)O)nc(OC[C@@H](N)c3ccccc3)cc21             28
3       CCn1c(-c2nonc2N)nc2c(N3CCCC3)nccc21           4.51
4  NC(=O)c1ccc(-c2nc(-c3ccccn3)c(-c3ccc4c(c3)OCO4)[nH]2)cc1            0.4

Provide inhibition for all items below, preserving their order.
1. Cc1ccc(C(=O)NC2CCCCC2)cc1-c1ccc(C(=O)NCC2CC2)cc1
2. COc1ccccc1Nc1ncc(-c2ccccc2)o1
3. CN(C)c1cc2c(Nc3ccc4nc(Cc5ccccc5)[nH]c4c3)ncnc2cn1
4. Nc1ncnc2occ(-c3ccc(NC(=O)Nc4cccc(C(F)(F)F)c4)cc3)c12
5. COc1cc2ncn(-c3cc(OCc4ccccc4Cl)c(C(N)=O)s3)c2cc1OC
6. CC1=C(C(=O)Nc2ccc3[nH]ncc3c2)C(c2ccc(Cl)c(Cl)c2)CC(=O)N1 (centres undefined)
7. [O-][S+]1CCN(Cc2ccc(-c3ccc4ncnc(Nc5ccc(OCc6ccccc6)c(F)c5)c4c3)o2)CC1

1: 2.83; 2: -0.18; 3: 0.74; 4: 1.07; 5: 14.3; 6: -0.25; 7: 1.72

Provide inhibition for all items below, preserving their order.
1. CCn1c(-c2nonc2N)nc2cncc(C(=O)N3CCNCC3)c21
2. CCn1c(-c2nonc2N)nc2cncc(C(=O)N3CC[C@H](N)C3)c21
3. COc1cc(C=NNc2ncnc3c2cnn3-c2ccccc2)ccc1O
4. NCc1ccc(-c2nc(-c3ccc(Cl)c(O)c3)c(-c3ccncc3)[nH]2)cc1
5. Fc1cccc(COc2ccc(Nc3ncnc4cc(-c5ccc[nH]5)sc34)cc2Cl)c1
6. NS(=O)(=O)c1ccc(N/N=C2\C(=O)Nc3ccc(C(=O)NCCc4c[nH]cn4)cc32)cc1

-0.04
0.02
16.1
1.84
2.43
54.2

Provide inhibition for all items below, preserving their order.
1. COc1cc2ncn(-c3cc(OCc4ccccc4C(F)(F)F)c(C(N)=O)s3)c2cc1OC
2. COC(=O)Nc1nc2cc(Oc3cccc(NC(=O)Nc4cc(C(F)(F)F)ccc4F)c3)ccc2[nH]1

21.7
0.14

Provide inhibition for all items below, preserving their order.
1. Nc1nc(-c2ccc3c(c2)C(=Cc2cc(Br)c(O)c(Br)c2)C(=O)N3)cs1
2. Nc1nc(-c2ccccn2)c(-c2ccc3ncccc3n2)s1
3. COc1ccc(-c2ccncc2)cc1C(N)=O
4. COc1cc2c(cc1Nc1nc(N3CCc4ccccc43)c3cc[nH]c3n1)N(C(=O)CN(C)C)CC2

[3.02, 4.24, 1.88, 4.37]
